Recorded values, source patent US20240101668A1.

biological target: T1, huFLT3-M227 stably expressed on Ramos cells (human, UniProt P36888 27-993); assay: FACS on cells
T1 construct: whole, on cells; also called FLT3 Mutant
T1 sequence (P36888 27-993 T227M): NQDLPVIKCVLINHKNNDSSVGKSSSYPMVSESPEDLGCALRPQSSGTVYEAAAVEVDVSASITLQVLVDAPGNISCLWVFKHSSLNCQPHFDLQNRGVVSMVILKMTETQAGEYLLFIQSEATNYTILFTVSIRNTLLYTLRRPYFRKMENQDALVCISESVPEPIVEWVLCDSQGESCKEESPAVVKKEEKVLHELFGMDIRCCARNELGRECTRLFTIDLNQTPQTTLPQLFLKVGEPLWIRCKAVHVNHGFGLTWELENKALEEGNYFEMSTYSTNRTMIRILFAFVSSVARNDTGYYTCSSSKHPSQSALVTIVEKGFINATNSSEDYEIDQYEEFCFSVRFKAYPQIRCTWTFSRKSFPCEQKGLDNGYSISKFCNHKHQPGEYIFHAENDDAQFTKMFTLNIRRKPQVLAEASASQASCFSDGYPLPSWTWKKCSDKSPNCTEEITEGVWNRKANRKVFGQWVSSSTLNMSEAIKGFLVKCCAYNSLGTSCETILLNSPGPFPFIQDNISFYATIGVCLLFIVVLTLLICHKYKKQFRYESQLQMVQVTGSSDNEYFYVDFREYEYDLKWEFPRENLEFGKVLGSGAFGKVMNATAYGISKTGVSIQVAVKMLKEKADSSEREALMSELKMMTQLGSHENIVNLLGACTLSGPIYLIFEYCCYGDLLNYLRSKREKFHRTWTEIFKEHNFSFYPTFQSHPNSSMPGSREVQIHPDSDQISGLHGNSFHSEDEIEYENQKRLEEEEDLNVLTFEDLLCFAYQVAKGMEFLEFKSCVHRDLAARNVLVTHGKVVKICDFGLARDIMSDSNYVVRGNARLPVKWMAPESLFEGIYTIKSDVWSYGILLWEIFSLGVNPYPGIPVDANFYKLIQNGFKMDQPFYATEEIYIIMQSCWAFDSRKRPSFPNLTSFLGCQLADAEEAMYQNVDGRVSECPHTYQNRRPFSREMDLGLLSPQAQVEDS
Known FACS geometric mean fold change over Jurkat parental of a selection of binders

If you can, please state the reported FACS geometric mean fold change over Jurkat parental value of Polypeptide No. 286 (scFv, V domains shown, scFv) VH: QVQLVQSGAEVKKPGASVKVSCKASGYTFTSYGISWVRQAPGQGLEWMGWISPNSGVTNYAQKFQGRVTMTRDTSTSTVYMELSSLRSEDTAVYYCVSDDYGAFDYWGQGTLVTVSS VL: EIVMTQSPATLSVSPGERATLSCRASQSVSSSYLAWYQQKPGQAPRLLIYDVSTRASGIPARFSGSGSGTEFTLTISSLQSEDFAVYYCQQYNNWPYTFGQGTKLEIKR . 2 to 10 fold

How about this binder: Polypeptide No. 219 (scFv, V domains shown, scFv) VH: QVQLVQSGAEVKKPGASVKVSCKASGYTFTNYYMHWVRQAPGQGLEWMGIINPSSGSASYTQKLQGRVTMTRDTSTSTVYMELSSLRSEDTAVYYCARDRSTLVPLDYWGQGTLVTVSS VL: DIQMTQSPSSLSASVGDRVTITCRASQGIRSELSWYQQKPGKAPKLLIYKASSLESGVPSRFSGSGSGTDFTLTISSLQPEDFATYYCLQHNSYPLTFGGGTKVEIKR 10 to 30 fold

How about this binder: Polypeptide No. 265 (scFv, V domains shown, scFv) VH: QVQLVQSGAEVKKPGSSVKVSCKASGHTFTSDYMHWVRQAPGQGLEWMGRIIPIFGTADYAQKFQGRVTITADESTSTAYMELSSLRSEDTAVYYCARDDSSGIFDYWGQGTLVTVSS VL: EIVMTQSPATLSVSPGERATLSCRASQSVNSEHLAWYQQKPGQAPRLLIYDTSSRATGIPARFSGSGSGTEFTLTISSLQSEDFAVYYCQQYGSSPVTFGQGTKVEIKR 10 to 30 fold
